Ref: PubChem BioAssay AID248

Test system: L1210 leukemia ip in BDF1 mice, survival T/C
Experiment: NCI In Vivo Anticancer Drug Screen. Data for tumor model L1210 Leukemia (intraperitoneal) in B6D2F1 (BDF1) mice
Details: endpoint: mean survival time; dose: 100.0 mg/kg/injection; schedule: Q04DX003 (ip); vehicle: saline; higher = longer survival
Toxic doses and inconclusive results are not listed.
Value Kind: T/C

1) COc1ccc2c(=O)c3ccccc3oc2c1    101 % of control
2) CCCNC    96 % of control
3) Nc1nc2nc(CC(=O)C(=O)O)c(=O)[nH]c2c(=O)[nH]1    106 % of control
4) CN(C)C(=O)/C=C/C(=O)N(C)C    103 % of control
5) COc1ccc(C(=O)CSc2cc[o+]cc2)cc1    95 % of control
6) c1ccc2c(c1)[nH]c1nc3ccncc3nc12    103 % of control
7) CC(O)(CCl)C(=O)O (configuration not stated)    96 % of control
8) CCCCCCCCCCCCCCCCCCCCCCCCCC(=O)OCCCCCCCCCCCCCC    109 % of control
9) Nc1nc(Nc2ccccc2)nc(C(=O)O)n1    110 % of control
10) CC(C)N=C(N)C(N)=NC(C)C    98 % of control
11) COc1ccc(C(Br)C(Br)C(=O)c2ccc3c(c2)OCO3)cc1OC (configuration not stated)    92 % of control
12) O=C(NCCCOc1ccc([N+](=O)[O-])cc1Cl)Nc1ccc(S(=O)(=O)F)cc1    103 % of control
13) O=C(Nc1ccc(C(=O)CCl)cc1)Nc1ccc(C(=O)CCl)cc1    101 % of control
14) CC1=C(/C=C/C(C)=N/NC(N)=O)C(C)(C)CCC1    94 % of control
15) Oc1ccc(Nc2ccccc2)cc1    101 % of control
16) CCC1(O)C(=O)OCc2c1ccnc2Cl (configuration not stated)    116 % of control
17) O=C(O)C(O)C(Br)C(=O)O (configuration not stated)    104 % of control
18) NC(=O)c1cc[n+](-c2ccc([N+](=O)[O-])cc2[N+](=O)[O-])cc1    102 % of control
19) Cc1cccc(C)c1NC(=O)Oc1cccc2ccccc12    93 % of control
20) CCOC(N)=O    95 % of control
21) O=C1NCN(CCO)CN1    95 % of control
22) O=C(O)c1ccccc1OCc1cc(=O)[nH]c(=O)[nH]1    95 % of control
23) CC(C)N(Cl)S(C)(=O)=O    89 % of control
24) CN1C(=O)OC(C)(C)C1=O    98 % of control
25) O=Cc1ccc(O)cn1    92 % of control
26) CC(=O)Nc1nc(C)c(CCC#N)c(=O)[nH]1    96 % of control
27) c1ccc(CC(Cc2ccccc2)CN2CCCC2)cc1    95 % of control
28) [Br][Ce]([Br])[Br]    91 % of control
29) C(=N/OC(c1ccccc1)(c1ccccc1)c1ccccc1)/c1ccccc1    95 % of control
30) COc1cccc(OC)c1-c1oc2ccccc2c(=O)c1O    95 % of control
31) CN(C)CCSCCN1c2ccccc2Sc2ccc(Cl)cc21    104 % of control
32) CN(C)/N=C\c1cccnc1    112 % of control
33) COc1nc(=S)n2[nH]cnc2n1    91 % of control
34) CC1(C)OC2C(CNCCO)OC(OCc3ccccc3)C2O1 (configuration not stated)    94 % of control
35) O=C(NNc1c(Cl)cc(Cl)cc1Cl)C(O)C(O)C(O)C(O)CO (configuration not stated)    91 % of control
36) COC(=O)c1cc(C)[n+]([O-])cc1C(=O)OC    92 % of control
37) CCC(C)(C=O)C(C)=O (configuration not stated)    98 % of control
38) CCN(CC)CCCC(C)Nc1ccnc2cc(Cl)ccc12 (configuration not stated)    108 % of control
39) O=S1(=O)C=C(Cl)C(Cl)C1 (configuration not stated)    92 % of control
40) c1ccc2c[n+](C[n+]3ccc4ccccc4c3)ccc2c1    103 % of control
41) CCOC(=O)c1c(O)[nH]c(=O)c(Br)c1C    89 % of control
42) Cc1ccnc(NC(=O)Nc2ccccc2F)c1    95 % of control
43) CC(O)(C(=O)O)c1ccccc1 (configuration not stated)    100 % of control
44) O=C(O)c1ccnc(-c2ccc(Cl)cc2)c1    90 % of control
45) Nc1cc(=O)[nH][nH]1    102 % of control
46) C=C(C)C(C(=O)OC)n1scc(NCc2ccccc2)c1=O (configuration not stated)    91 % of control
47) CCOC(=O)c1cccc([N+](=O)[O-])c1I    93 % of control
48) O=C(O)c1c(Br)c(Br)c(Br)c(Br)c1-c1c2ccc(=O)c(O)c-2oc2c(O)c(O)ccc12    102 % of control
49) CC(CN(CCNc1ccccc1)c1ccccc1)c1ccccc1 (configuration not stated)    100 % of control
50) COc1cccc(NN)c1    101 % of control
51) CN1CCC=C(C(C)(C)O)C1    101 % of control
52) Cc1ccc[n+](CCC(N)=O)c1    102 % of control
